pKi values for Adenosine receptor A2a (Rattus norvegicus), compiled from several publications.
pKi: −log10 of the molar value.
Experimental readout: pKi

Example results:
C=CCn1c(=O)c2c(nc(-c3ccccc3)n2CC=C)n(C)c1=O: 5.11
CC(CN1CCn2c(nc3c2c(=O)n(C)c(=O)n3C)C1)c1ccccc1 (centres undefined): 5.34

(A) Nc1nc(N2CCN(Cc3ccsc3)CC2)nc2nc(-c3ccco3)nn12
(B) Cc1cc(CN2CCC(Nc3nc(N)n4nc(-c5ccco5)nc4n3)CC2)no1
Task item: Between A and B , which one shows the larger pKi value? Field: selected label. Fill in the label of the entry you choose.
Reply: A
(A: 7.12, B: 6.57)

(I) CC(C)(C)c1cc(C(=O)NCCC(=O)Nc2ccc(-c3cn4c(=O)n(-c5ccccc5)nc4c(N)n3)cc2)cc(C(C)(C)C)c1O
(II) CC(C)(C)OC(=O)NCCCCCCC(=O)Nc1nc2ccc(Cl)cc2c2nc(-c3ccco3)nn12
Task item: Between I and II , which one shows the larger pKi value? Field: selected label. Fill in the label of the entry you choose.
Reply: II
(II: 7.95, I: 7.07)

(P) Nc1nc(N/N=C/C=C/c2ccco2)nc2c1ncn2[C@@H]1O[C@H](CO)[C@@H](O)[C@H]1O
(Q) Cn1c(=O)c2c(nc3n2CCN(CCc2cccc(F)c2)C3)n(C)c1=O
Task item: Between P and Q , which one shows the larger pKi value? Field: selected label. Fill in the label of the entry you choose.
Reply: P
(P: 7.08, Q: 5.82)

###

Ki values for Adenosine receptor A2a (Rattus norvegicus, UniProt P30543), compiled from several publications.
Experimental readout: Ki (nM)

Example results:
CCNC(=O)[C@H]1OC(n2cnc3c(N)nc(NCCc4ccc(Cl)cc4)nc32)[C@H](O)[C@@H]1O (stereo not given in full): 7.5
Nc1nc2c(cnn2CCCc2ccc3c(c2)OCO3)c2nc(-c3ccco3)nn12: 3.8
CCNC(=O)[C@H]1OC(n2cnc3c(N)nc(C#CCN4CCOCC4)nc32)[C@H](O)[C@@H]1O (stereo not given in full): 27.4
CSc1nc(NC(=O)Nc2ccc(C)cc2)n2nc(-c3ccco3)nc2n1: 742
CC(C)C(O)(C#Cc1cn2nc(-c3ccco3)nc2c(N)n1)C(C)C: 7

(1) O=C(Nc1nc2ccc(Cl)cc2c2nc(-c3ccco3)nn12)c1ccccc1
(2) Cn1c(=O)c2c(nc3n2CCN([C@H]2CCc4ccccc42)C3)n(C)c1=O
Task item: Hey, between 1 and 2 which has a smaller measured Ki? Field: selected label. Fill in the label of the entry you choose.
Reply: 1

###

Ki values for Adenosine receptor A2a (Rattus norvegicus, UniProt P30543), compiled from several publications.
Experimental readout: Ki (nM)

Example results:
CCCn1c(=O)c2c(nc3n2CCCN3CCc2ccc(OCC(=O)NCCCNC3CCCCC3)cc2)n(CCC)c1=O: 335
CC(C#Cc1cn2nc(-c3ccco3)nc2c(N)n1)OC(C)(C)C (stereo not given): 37

(I) Nc1nc2c(cnn2CCc2ccc(OCc3ccccc3)cc2)c2nc(-c3ccco3)nn12
(II) OC[C@@]12C[C@@H]1[C@@H](n1cnc3c(NCc4cccc(I)c4)nc(Cl)nc31)[C@H](O)[C@@H]2O
(III) CCCCCCc1nc(N)c2ncn(C3O[C@H](CO)[C@@H](O)[C@H]3O)c2n1 (stereo not given in full)
(IV) Nc1nc(NC[C@H]2CCCN2Cc2ccccc2Cl)cc2nc(-c3ccco3)nn12
Task item: Hello, I need these entries ordered by Ki, highest reading first. Thanks! Hello, could you send the labels back in the order asked? Thank you.
Reply: II, IV, I, III
(II: 732 nM, IV: 192 nM, I: 59 nM, III: 12.1 nM)

###

Ki values for Adenosine receptor A2a (Rattus norvegicus, UniProt P30543), compiled from several publications.
Experimental readout: Ki (nM)

Nc1nc(N/N=C/c2ccc(Cl)cc2)nc2c1ncn2[C@@H]1O[C@H](CO)[C@@H](O)[C@H]1O: 16.1

(I) Cc1ccccc1-c1cc2nc(-c3ccco3)nn2c(N)n1
(II) CCCCCCCCNC(=O)Nc1ncnc2c1ncn2[C@@H]1O[C@H](C(=O)NCC)[C@@H](O)[C@H]1O
Task item: Hey, between I and II which has a smaller measured Ki? Field: selected label. Fill in the label of the entry you choose.
Reply: I
(I: 22 nM, II: 3070 nM)

(I) Cn1c(=O)c2c(nc3n2CCN(c2cccc4ccccc24)C3)n(C)c1=O
(II) CCCCn1c(=O)c2[nH]cnc2n(CCCC)c1=O
Task item: Between I and II , which one shows the larger Ki value? Field: selected label. Fill in the label of the entry you choose.
Reply: II
(II: 29300 nM, I: 2940 nM)

(P) Cc1cc(CN2CCC[C@@H]2CNc2cc(N)n3nc(-c4ccco4)nc3n2)no1
(Q) CC[C@@H]1CN2C(=O)N(C)c3nc(-c4cc(Cl)cc(Cl)c4Cl)[nH]c3C2=N1
(R) Cn1c(=O)c2c(nc(COc3ccc(Cl)cc3)n2C)n(C)c1=O
Task item: Hello, I need these entries ordered by Ki, highest reading first. Thanks! Hello, could you send the labels back in the order asked? Thank you.
Reply: Q, R, P

(A) Nc1nc(Cl)nc2c1ncn2[C@@H]1S[C@H](CO)[C@@H](O)[C@@H]1O
(B) Nc1nc(C#CC(O)(c2ccccc2)C(F)(F)F)cn2nc(-c3ccco3)nc12 (stereo not given)
Task item: Between A and B , which one shows the larger Ki value? Field: selected label. Fill in the label of the entry you choose.
Reply: A
(A: 7120 nM, B: 74 nM)

###

pKi: −log10 of the molar value.
pKi values for Adenosine receptor A2a (Rattus norvegicus), compiled from several publications.
Experimental readout: pKi

Example results:
Cc1cc(C)n(-c2cc(NC(=O)CN3CCN(C)CC3)nc(-c3ccc(C)o3)n2)n1: 6.88
CCn1c(=O)c2c(nc3n2CCCN3CCc2ccc(OCCN3CCOCC3)cc2)n(CC)c1=O: 6.07
CCCC/C=C\c1nc(N)c2ncn(C3O[C@H](C(=O)NCC)[C@@H](O)[C@H]3O)c2n1 (some centres undefined): 7.15
CCNC(=O)[C@H]1OC(n2cnc3c(N)nc(C#CCc4ccccc4)nc32)[C@H](O)[C@@H]1O (some centres undefined): 8.80
CCCn1c(=O)c2c(nc3n2CCCN3CCc2ccc(OCCN(CC)CC)cc2)n(CCC)c1=O: 6.18

(a) Nc1nc(CCO)nc2c1ncn2C1O[C@H](CO)[C@@H](O)[C@H]1O (some centres undefined)
(b) Nc1cc(Cl)nc2c1ncn2[C@@H]1O[C@H](CO)[C@@H](O)[C@H]1O
(c) CC(=O)Nc1cc(-c2cccc(N3CCC(O)CC3)n2)nc(-n2nc(C)cc2C)n1
(d) Nc1ncnc2c1ncn2[C@@H]1OC(CO)[C@H](NC(=O)c2ccccc2)[C@H]1O (single isomer, unassigned)
Task item: Hello, I need these entries ordered by pKi, highest reading first. Thanks! Hello, could you send the labels back in the order asked? Thank you.
Reply: c, a, b, d

(1) CC(C)Oc1nc(N)c2ncn(C3O[C@H](CO)[C@@H](O)[C@H]3O)c2n1 (some centres undefined)
(2) Cn1c(=O)c2c(nc3n2CCCN3Cc2ccccn2)n(C)c1=O
Task item: Hey, between 1 and 2 which has a smaller measured pKi? Field: selected label. Fill in the label of the entry you choose.
Reply: 1
(1: 5.13, 2: 5.60)

(P) CNC(=O)[C@H]1OC(n2cnc3c(NCc4cccc(I)c4Cl)ncnc32)[C@H](O)[C@@H]1O (some centres undefined)
(Q) CCNC(=O)[C@H]1O[C@@H](n2cnc3c(NC(=O)Nc4ccccc4Cl)ncnc32)[C@H](O)[C@@H]1O
Task item: Hey, between P and Q which has a smaller measured pKi? Field: selected label. Fill in the label of the entry you choose.
Reply: Q
(Q: 5.87, P: 6.33)

(a) COc1ccccc1CN1CCCn2c1nc1c2c(=O)n(C)c(=O)n1C
(b) Nc1nc(N/N=C/C=C/c2ccccc2[N+](=O)[O-])nc2c1ncn2[C@@H]1O[C@H](CO)[C@@H](O)[C@H]1O
(c) CCCn1c(=O)c2c(nc3n2CCCN3Cc2ccccc2Cl)n(CCC)c1=O
Task item: Hello, I need these entries ordered by pKi, highest reading first. Thanks! Hello, could you send the labels back in the order asked? Thank you.
Reply: b, a, c

###

Ki values for Adenosine receptor A2a (Rattus norvegicus), compiled from several publications.
Experimental readout: Ki (nM)

Example results:
CCNC(=O)[C@H]1OC(n2cnc3c(N)nc(C#Cc4ccc(CCC(=O)OC(C)(C)C)cc4)nc32)[C@H](O)[C@@H]1O (stereo not given in full): 743
Oc1nc2ccc(Cl)cc2c2nc(-c3ccco3)nn12: 4380
CC(C)c1ccc(-c2cc3nc(-c4ccco4)nn3c(N)n2)cc1: 4.7
Cc1nc[nH]c1CN1CCN(c2nc(N)n3nc(-c4ccco4)nc3n2)CC1: 130
O=C(Nc1nc2ccccc2c(=O)s1)c1ccc(C(=O)N2CCN(Cc3cccc(Cl)c3)CC2)cc1: 84.7
COc1cccc(CCCC(=O)Nc2nc3ccccc3c(=O)s2)c1: 558

(A) OC[C@H]1O[C@@H](n2cnc3c(NC4CCCC4)ccnc32)[C@H](O)[C@@H]1O
(B) O=C(Nc1nc2ccccc2c(=O)s1)c1ccc(C(=O)N2CCN(Cc3ccc(Cl)cc3)CC2)cc1
Task item: Between A and B , which one shows the larger Ki value? Field: selected label. Fill in the label of the entry you choose.
Reply: A
(A: 10100 nM, B: 488 nM)
